# log10(koff) per record follows
EXPERIMENTAL SYSTEM: IL-13 (Homo sapiens (Human), UniProt P35225 35-146, limits assumed)
Sequence (P35225 35-146 limits assumed): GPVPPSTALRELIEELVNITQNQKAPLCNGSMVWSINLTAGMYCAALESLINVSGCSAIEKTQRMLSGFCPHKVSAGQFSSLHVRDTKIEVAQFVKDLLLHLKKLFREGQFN
PROTOCOL: Biacore
RESULT TYPE: log10(koff) (log10 of the value in s⁻¹)

BINDER: M469 (antibody, V domains shown, anti-IL-13, human IgG1) VH: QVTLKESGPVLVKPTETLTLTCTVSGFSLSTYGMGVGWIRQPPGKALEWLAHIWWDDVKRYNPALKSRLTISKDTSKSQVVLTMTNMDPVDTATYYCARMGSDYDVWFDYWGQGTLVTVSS VL: EIVLTQSPATLSLSPGERATLSCRASKSISKYLAWYQQKPGQAPRLLIYSGSTLQSGIPARFSGSGSGTDFTLTISSLEPEDFAVYYCQQHDWEPYTFGQGTKLEIK
MEASURED VALUE: -3.84

BINDER: M467 (antibody, V domains shown, anti-IL-13, human IgG1) VH: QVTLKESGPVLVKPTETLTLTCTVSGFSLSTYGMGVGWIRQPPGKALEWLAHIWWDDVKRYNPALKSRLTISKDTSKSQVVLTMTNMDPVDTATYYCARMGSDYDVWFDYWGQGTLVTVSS VL: EIVLTQSPATLSLSPGERATLSCRASKSISKYLAWYQQKPGQAPRLLIYSGSTLQSGIPARFSGSGSGTDFTLTISSLEPEDFAVYYCQQHSWAPYTFGQGTKLEIK
MEASURED VALUE: -3.34

BINDER: M480 (antibody, V domains shown) VH: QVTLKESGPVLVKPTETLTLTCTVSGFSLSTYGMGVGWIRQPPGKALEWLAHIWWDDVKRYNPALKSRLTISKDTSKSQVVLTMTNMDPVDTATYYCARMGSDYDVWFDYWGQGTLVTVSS VL: EIVLTQSPATLSLSPGERATLSCRASKSISKYLAWYQQKPGQAPRLLIYSGSTLQSGIPARFSGSGSGTDFTLTISSLEPEDFAVYYCQQQDSPYTFGQGTKLEIK
MEASURED VALUE: -4.41

BINDER: M449 (antibody, V domains shown, anti-IL-13, human IgG1) VH: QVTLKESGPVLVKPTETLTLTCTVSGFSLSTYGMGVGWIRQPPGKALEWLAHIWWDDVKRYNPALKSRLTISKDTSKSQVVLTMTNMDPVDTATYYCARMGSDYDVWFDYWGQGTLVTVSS VL: EIVLTQSPATLSLSPGERATLSCRASKSISKYLAWYQQKPGQAPRLLIYSGSTLQSGIPARFSGSGSGTDFTLTISSLEPEDFAVYYCQQHESGPYTFGQGTKLEIK
MEASURED VALUE: -4.05

BINDER: M454 (antibody, V domains shown, anti-IL-13, human IgG1) VH: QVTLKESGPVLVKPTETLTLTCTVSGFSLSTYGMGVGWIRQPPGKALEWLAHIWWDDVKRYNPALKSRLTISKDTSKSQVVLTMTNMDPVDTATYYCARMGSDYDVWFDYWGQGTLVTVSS VL: EIVLTQSPATLSLSPGERATLSCRASKSISKYLAWYQQKPGQAPRLLIYSGSTLQSGIPARFSGSGSGTDFTLTISSLEPEDFAVYYCQQQDYGPYTFGQGTKLEIK
MEASURED VALUE: -4.13

Origin of measurements: patent US20100261620A1
